System: K-562 leukemia
protocol_notes: NCI tumour cell line growth inhibition, 48 h
property_measured: TGI

Query: Return TGI (reported value) for this compound: O=S1c2ccccc2SCSc2ccccc21
Reply: 75.8 µM

Query: Return TGI (reported value) for this compound: CCOC(=O)C(=CNC(=S)Nc1c(CC)cccc1CC)C(=O)OCC
Reply: > 100 µM

Query: Return TGI (reported value) for this compound: C1=NCCNCCN=Cc2ccccc2OCc2cccc(n2)COc2ccccc21
Reply: > 79.5 µM

Query: Return TGI (reported value) for this compound: COc1cc(C(=O)CC2(O)C(=O)Nc3c(Cl)cc(Cl)cc32)ccc1O (centres undefined)
Reply: > 100 µM

Query: Return TGI (reported value) for this compound: CSC1C(=O)c2ccccc2/C(=N/Nc2nc3ccccc3s2)C1C (centres undefined)
Reply: 4.55 µM

Query: Return TGI (reported value) for this compound: CC(C)CCc1c(Cl)nc(Cl)nc1Cl
Reply: > 100 µM

Query: Return TGI (reported value) for this compound: O=P1(O)c2ccccc2Nc2cc(C(F)(F)F)ccc21
Reply: > 100 µM

Query: Return TGI (reported value) for this compound: NCCCCN(Cc1nc2ccccc2[nH]1)[C@H]1CCCc2cccnc21
Reply: 43.3 µM

Query: Return TGI (reported value) for this compound: CSC(=S)OC1C(CO[Si](C)(C)C(C)(C)C)OC2OC(C)(C)OC21 (centres undefined)
Reply: 31 µM

Query: Return TGI (reported value) for this compound: Cc1cccc2c1C/C(=C1\CCc3c(C)cccc31)C2=O
Reply: > 100 µM

---

Each item that follows carries a reported TGI.
Tested on: COLO 205 colon
protocol_notes: NCI tumour cell line growth inhibition, 48 h

Check out these entries, answers already filled in.
- molecule: "CC(=O)c1c[nH]cc1CO"
  TGI: "> 10 µM"
- molecule: "Fc1ccc(Nc2nnc(-c3ccccn3)s2)cc1"
  TGI: "> 100 µM"
- molecule: "CC1=Nn2c(nnc2-c2ccc(N)cc2)NC(C)(C)C1"
  TGI: "> 100 µM"

Turning now to a further molecule:
Query: Return TGI (reported value) for this molecule: CCOC1C=CCCO1 (centres undefined)
Reply: > 100 µM

---

Tested on: NCI-H226 lung
protocol_notes: NCI tumour cell line growth inhibition, 48 h
property_measured: GI50

- compound: "COc1cc(/C=C/C(=O)c2c(C)n([O-])c3ccc(Cl)cc3[n+]2=O)cc(OC)c1OC"
  reported: "65200 nM"

Query: Return GI50 (reported value) for this molecule: Clc1ccc2c(c1)-c1ccccc1C1=NCCN12
Reply: 1450 nM

Query: Return GI50 (reported value) for this molecule: O=C1/C(=C/c2ccc(Cl)cc2)COc2ccc(O)c(O)c21
Reply: 1860 nM

---

Test system: MCF7 breast
protocol_notes: NCI tumour cell line growth inhibition, 48 h
Each item that follows carries a reported TGI.

Check out these entries, answers already filled in.
- compound: "CC[N+]1(C)CCC(O)(/C=C/c2ccc(Cl)cc2)C(C(=O)/C=C/c2ccc(Cl)cc2)C1 (stereo not drawn)"
  TGI: "> 36.6 µM"
- compound: "Fc1ccc(Nc2nnc(-c3ccccn3)s2)cc1"
  TGI: "> 100 µM"

Turning now to a further compound:
Query: Return TGI (reported value) for this compound: O=C1CCc2cc3c(cc21)CC1(Cc2cc4c(cc2C1)CCCC4)C3
Reply: > 100 µM
